// reported Ratio IC50 per item
- System: CCRF-CEM
- Test Details: Resistance index, ratio of IC50 for human CEM/ADR5000 cells to IC50 for human CCRF-CEM cells
- Assay type: functional
In your answer, state the number alone without any accompanying words.

Below, 3 molecules whose answers are already recorded.
Molecule	Subject Of Test	Ratio IC50
C[C@H]1[C@@H](O)O[C@@H]2O[C@@]3(C)CC[C@H]4[C@H](C)CC[C@@H]1[C@@]24OO3 [ARTENIMOL]	CCRF-CEM	3
C[C@H]1[C@@H](CC(CO)C[C@H]2O[C@@H]3O[C@@]4(C)CC[C@H]5[C@H](C)CC[C@@H]([C@H]2C)[C@@]35OO4)O[C@@H]2O[C@@]3(C)CC[C@H]4[C@H](C)CC[C@@H]1[C@@]24OO3 (some centres undefined)	CCRF-CEM	2.5
C[C@H]1[C@@H](OCC(C[C@H]2O[C@@H]3O[C@@]4(C)CC[C@H]5[C@H](C)CC[C@@H]([C@H]2C)[C@@]35OO4)C[C@H]2O[C@@H]3O[C@@]4(C)CC[C@H]5[C@H](C)CC[C@@H]([C@H]2C)[C@@]35OO4)O[C@@H]2O[C@@]3(C)CC[C@H]4[C@H](C)CC[C@@H]1[C@@]24OO3	CCRF-CEM	245

Find the recorded Ratio IC50 belonging to C[C@H]1[C@H](OC(=O)CCC(=O)OCC(C[C@H]2O[C@@H]3O[C@@]4(C)CC[C@H]5[C@H](C)CC[C@@H]([C@H]2C)[C@@]35OO4)C[C@H]2O[C@@H]3O[C@@]4(C)CC[C@H]5[C@H](C)CC[C@@H]([C@H]2C)[C@@]35OO4)O[C@@H]2O[C@@]3(C)CC[C@H]4[C@H](C)CC[C@@H]1[C@@]24OO3 and report it.
100
